Values were extracted from patent US8846951B2.

# assayTarget: 5HT2C receptors (Homo sapiens)
# Sequence (P28335 33-458): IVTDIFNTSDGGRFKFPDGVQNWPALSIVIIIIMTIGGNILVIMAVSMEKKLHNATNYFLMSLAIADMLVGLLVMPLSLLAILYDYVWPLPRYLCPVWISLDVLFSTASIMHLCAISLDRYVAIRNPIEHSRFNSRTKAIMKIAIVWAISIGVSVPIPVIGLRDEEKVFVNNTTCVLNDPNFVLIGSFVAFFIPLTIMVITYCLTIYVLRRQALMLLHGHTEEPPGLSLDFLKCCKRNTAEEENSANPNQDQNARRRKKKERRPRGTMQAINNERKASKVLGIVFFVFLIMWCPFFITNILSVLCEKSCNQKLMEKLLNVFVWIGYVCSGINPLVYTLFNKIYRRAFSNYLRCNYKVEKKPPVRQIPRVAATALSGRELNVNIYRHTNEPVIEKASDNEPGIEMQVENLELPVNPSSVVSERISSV
# measurementNotes: Human 5-HT2C functional high throughput screening assay in CHO-K1 cells (calcium flux)
# Type: cell-based
# Parameters: expressed in transfected cells; host or cells: CHO-K1 cells
# conditionDescription: 5-HT2C agonist activity; CHO-K1 cells; calcium flux
endpointLabel: EC50 (µM)
Please give a number only; it is taken to be in µM.

Enquiry: Query: EC50; subject: Cc1noc(C)c1-c1ccc2c(c1)C(=O)NC[C@@H]1CNC[C@@H]21 (single isomer, unassigned)
Return: 0.05
